system: MARIMO; test: cell viability relative to vehicle control; higher = less cytotoxic; conditions: 10 µM; SRSF2 genotype: SRSF2 P95H/wt;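 note: after 48 h exposure read by CellTiter-Glo luminescence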
READOUT KIND: cell viability (%)
Give the number; % is assumed, so skip it.

Example entries and their recorded answers appear below.
>>> quantitative_readout("COC1CC(OC2CCC3(C)C4CCC5(C)C(C6=CC(=O)OC6)CCC5(O)C4CCC3(O)C2)OC(C)C1OC1OC(CO)C(O)C(O)C1O (centres undefined)")
11.5
>>> quantitative_readout("C[C@@H]1CC[C@@]2(OC1)O[C@H]1C[C@H]3[C@@H]4CC=C5C[C@@H](O[C@@H]6O[C@H](CO)[C@@H](O[C@@H]7O[C@@H](C)[C@H](O)[C@@H](O)[C@H]7O)[C@H](O)[C@H]6O[C@@H]6O[C@@H](C)[C@H](O)[C@@H](O)[C@H]6O)CC[C@]5(C)[C@H]4CC[C@]3(C)[C@H]1[C@@H]2C [Dioscin (Collettiside III)]")
1.89
>>> quantitative_readout("CCCCCc1cc(O)cc(O)c1")
87.2

Ask: # query: cell viability of entry CC[C@@H](C(N)=O)N1CCCC1=O
Result: 102

* * *

test system: MOLM14; test: cell viability relative to vehicle control; higher = less cytotoxic; conditions: 10 µM; SRSF2 genotype: SRSF2 P95H/wt
READOUT KIND: cell viability (%)
Give the number; % is assumed, so skip it.

Example entries and their recorded answers appear below.
>>> quantitative_readout("CC(C)(C)c1cc(C=C(C#N)C#N)cc(C(C)(C)C)c1O [Tyrphostin 9 (SF 6847)]")
17.7
>>> quantitative_readout("O=c1ccc2cc(O[C@@H]3O[C@H](CO)[C@@H](O)[C@H](O)[C@H]3O)c(O)cc2o1 [Aesculin (Esculin)]")
101
>>> quantitative_readout("O=c1[nH]c2ccc(Cl)cc2c(N[C@@H]2CN3CCC2CC3)c1-c1nc2ccccc2[nH]1")
0.07
>>> quantitative_readout("C[N+]1(C)[C@@H]2C[C@@H](OC(=O)[C@H](CO)c3ccccc3)C[C@H]1[C@@H]1O[C@@H]12")
82.4
>>> quantitative_readout("C#C[C@]1(O)C=C[C@H]2[C@@H]3CCC4=CC(=O)CC[C@@H]4[C@H]3CC[C@@]21CC")
94.2
>>> quantitative_readout("CC(=O)OCC1=C(C(=O)O)N2C(=O)C(N)C2SC1 (stereo not drawn)")
111

Ask: # returns recorded cell viability (system: MOLM14) for COc1cc([C@@H]2c3cc4c(cc3[C@H](O)[C@H]3COC(=O)[C@H]23)OCO4)cc(OC)c1O
Result: 0.85

Ask: # returns recorded cell viability (system: MOLM14) for c1ccc2c(c1)[I+]c1ccccc1-2 [Diphenyleneiodonium chloride (DPI)]
Result: 3.2

* * *

tested on: OCI-AML2; assay: cell viability relative to vehicle control; higher = less cytotoxic; settings: 10 µM; SRSF2 genotype: wt/wt
Where a name gives a salt, the structure may show the parent alone.
Consider the following compounds and their measured cell viability readings.
Give the number; % is assumed, so skip it.

>>> quantitative_readout("Cc1sc2c(c1C)C(c1ccc(Cl)cc1)=N[C@@H](CC(=O)OC(C)(C)C)c1nnc(C)n1-2")
30.2
>>> quantitative_readout("C[C@](O)(COc1ccc(C#N)cc1)C(=O)Nc1ccc(C#N)c(C(F)(F)F)c1")
93.4
>>> quantitative_readout("CN1[C@@H]2CC[C@H]1C[C@@H](OC(=O)C(CO)c1ccccc1)C2 (some centres undefined) [Atropine sulfate monohydrate]")
99.6

Attention now shifts to the item below.
Ask: # returns recorded cell viability (system: OCI-AML2) for CC(C)=CCC[C@]1(C)C=Cc2c(O)c3c(c(CC=C(C)C)c2O1)O[C@]12C(=C[C@@H]4C[C@H]1C(C)(C)O[C@@]2(C/C=C(/C)C(=O)O)C4=O)C3=O
Result: 0.45
